- System: HS 578T breast
- Test Method Notes: NCI-60 one-dose screen, 48 h
- Experimental Conditions: 10 µM unless noted
This is part of a sample that, as a whole, favours compounds with a hit. Of some 83,000 tested, about 20% had one in any assay. Active and inactive are the calls of the source. Rule for the calls: active = growth percent below 10; inactive = the rest.
Outcomes: TRUE (active), FALSE (inactive)

{"columns": ["Compound", "Target System", "Answer Label"],
 "data": [
  ["CC1CN(/N=C/c2ccc([N+](=O)[O-])o2)C(=N)O1 (stereo unspecified)", "HS 578T breast", "FALSE"],
  ["O=C(/C=C/c1c(-c2ccccc2)[nH]c2ccccc12)S(=O)(=O)c1ccccc1", "HS 578T breast", "FALSE"],
  ["Oc1ccc(/C=N/Nc2nc3ccccc3s2)c(O)c1", "HS 578T breast", "FALSE"],
  ["CCCCN1c2nc3ccccc3cc2Sc2cc3ccccc3nc21", "HS 578T breast", "FALSE"],
  ["COc1cc(Cl)cc(-c2nn(-c3cccc(NC(=O)c4cc(C(F)(F)F)cc(C(F)(F)F)c4)c3)cc2-c2ccncc2)c1", "HS 578T breast", "FALSE"],
  ["FCc1ncc(-c2ccc(C(F)(F)F)cc2)c(NC2CCCCCC2)n1", "HS 578T breast", "FALSE"],
  ["Clc1ccc2c(c1)C(Br)c1cc(Cl)cc(Cl)c1-2 (stereo unspecified)", "HS 578T breast", "FALSE"],
  ["CC1C(C)N(C(=O)CCl)c2ccccc2N1C(=O)CCl (stereo unspecified)", "HS 578T breast", "TRUE"],
  ["N#Cc1c(-c2ccccc2)cc(-c2ccccc2)n(CC(=O)O)c1=O", "HS 578T breast", "FALSE"],
  ["Nc1nc(SCc2cccnc2)c2ncn(C3OC(CO)C(O)C3O)c2n1 (stereo unspecified)", "HS 578T breast", "FALSE"],
  ["CCC(=O)Nc1cc2c(cc1Cl)-c1ccccc1C2", "HS 578T breast", "FALSE"]
]}

###

- Tested on: SF-539 CNS
- Test Method Notes: NCI-60 one-dose screen, 48 h
- Experimental Conditions: 10 µM unless noted
Compounds without any hit were thinned out: in the full panel of roughly 83,000, 20% have a hit. Activity calls are given as the source filed them. The calls were made as follows: active = growth percent below 10; inactive = the rest.
Outcomes: active, inactive

{"columns": ["Compound", "Answer Label"],
 "data": [
  ["COc1ccc(C(=O)/C=C/c2cccc(Nc3ccnc4cc(Cl)ccc34)c2)cc1", "inactive"],
  ["COc1ccc(/C=C2/SC(=Nc3c(C)nn(-c4ccccc4)c3N)NC2=O)cc1", "inactive"],
  ["O=C(NC1CCS(=O)(=O)C1)c1ccc(C(=O)c2ccccc2)cc1 (centres undefined)", "inactive"],
  ["CN(C)CCCNc1nn2c(=O)c3ccccc3nc2c2ccccc12", "inactive"],
  ["CC1CN(/N=C/c2ccc([N+](=O)[O-])o2)C(=N)O1 (centres undefined)", "inactive"],
  ["O=C(Nc1cccc(-n2cc(-c3ccncc3)c(-c3cc(O)cc(Cl)c3)n2)c1)Nc1ccc(Cl)c(Cl)c1", "active"],
  ["CCOC(=O)Nc1cc(-c2ccc(C)c(NS(C)(=O)=O)c2)nn2c(C)nnc12", "inactive"],
  ["COc1cc(/C=C2\\CN(S(=O)(=O)c3ccc(C)cc3)C/C(=C\\c3cc(CN4CCOCC4)c(O)c(OC)c3)C2=O)cc(CN2CCOCC2)c1O", "active"],
  ["C[C@H]1c2cccc(O)c2C(O)=C2C(=O)[C@]3(O)C(O)=C(C(N)=O)C(=O)[C@@H](N(C)C)[C@@H]3[C@@H](O)[C@@H]21", "inactive"],
  ["O=C(/C=C/c1ccc(C(F)(F)F)cc1)c1ccc(Nc2nc(NCCO)nc(NCCO)n2)cc1", "inactive"],
  ["CC1C(=O)NC2=Nc3ccccc3C(=O)NN21 (centres undefined)", "inactive"],
  ["O=C(Nc1ccccc1)P(=O)(O)c1ccccc1", "inactive"],
  ["COC(=O)[C@H](Cc1cn(C)cn1)NC(=O)[C@H](Cc1ccccc1)NC(=O)Nc1cc(C(F)(F)F)cc(C(F)(F)F)c1", "active"],
  ["COc1cc(/C=N/NC(=O)c2ccc(C(F)(F)F)nc2Nc2ccc(Cl)cc2C)ccc1O", "inactive"],
  ["COc1cccc(N2CCN(CC(=O)N3CCN(c4nnc(-c5ccc(Cl)cc5)c(-c5ccc(Cl)cc5)n4)CC3)CC2)c1", "inactive"],
  ["Cc1nn(-c2ccccc2)c2nc(N)c(C3=NCCO3)nc12", "inactive"],
  ["O=C(NC1CCCCC1)c1ccc(Nc2ncnc3c2cnn3-c2ccccc2)cc1", "inactive"],
  ["OCCCc1n(Cc2ccc3ccccc3c2)c2ccccc2[n+]1Cc1ccc2ccccc2c1", "inactive"],
  ["COc1ccc(C2=NN(C=O)C(c3cccc(Nc4ccnc5cc(Cl)ccc45)c3)C2)cc1 (centres undefined)", "active"]
]}

###

- System: OVCAR-4 ovarian
- Test Method Notes: NCI-60 one-dose screen, 48 h (100 = growth as untreated, 0 = no growth, -100 = all killed)
- Experimental Conditions: 10 µM unless noted
Compounds without any hit were thinned out: in the full panel of roughly 83,000, 20% have a hit. Calls of active or inactive are those of the source. Rule for the calls: active = growth percent below 10; inactive = the rest.

{"columns": ["Compound", "growth"],
 "data": [
  ["O=C(CC1Sc2ccccc2NC1=O)NNc1cccc(Cl)c1Cl (stereo unspecified)", "88.1% (inactive)"],
  ["COc1cc(/C=C2\\CN(C)CC3=C2Nc2nc(SC)[nH]c(=O)c2C3c2cc(OC)c(OC)c(OC)c2)cc(OC)c1OC (stereo unspecified)", "75.9% (inactive)"],
  ["N#Cc1c(-c2ccccc2)cc(-c2ccccc2)n(CCC(=O)O)c1=O", "90.8% (inactive)"],
  ["NS(=O)(=O)c1ccc(-n2nc(-c3ccc(Br)cc3)ccc2=O)cc1", "89.4% [100 µM] (inactive)"],
  ["CC(C)N(Cc1ccccc1)c1c(S)ssc1=S", "-2.68% (active)"],
  ["O=Cc1ccccc1C(=O)O", "92.6% (inactive)"]
]}

###

- Test system: MCF7 breast
- Test Method Notes: NCI-60 one-dose screen, 48 h
- Experimental Conditions: 10 µM unless noted
The panel holds about 83,000 compounds, 20% with a hit somewhere; the sample as a whole holds those more often. Activity calls are given as the source filed them. Rule for the calls: active = growth percent below 10; inactive = the rest.
Outcomes: YES = active, NO = inactive

{"columns": ["Input Smiles", "Answer Label"],
 "data": [
  ["COc1ccc(CCN2C(=O)CCC3=C2CCCC3=O)cc1OC", "NO"],
  ["O=C(C(=O)c1cc(Br)ccc1O)c1cc(Br)ccc1O", "NO"],
  ["O=CNc1ccc2c(c1)Cc1cc([N+](=O)[O-])ccc1-2", "NO"],
  ["O=C1c2cccc3c([N+](=O)[O-])ccc(c23)C(=O)N1CCCCl", "YES"],
  ["Nc1ccc(Oc2c(F)c(F)c(Oc3ccc(N)cc3)c(F)c2F)cc1", "NO"],
  ["Cc1sc2nc(NCc3ccccc3)[nH]c(=O)c2c1C", "NO"]
]}

###

- Tested on: NCI-H23 lung
- Test Method Notes: NCI-60 one-dose screen, 48 h (100 = growth as untreated, 0 = no growth, -100 = all killed)
- Experimental Conditions: 10 µM unless noted
This is part of a sample that, as a whole, favours compounds with a hit. Of some 83,000 tested, about 20% had one in any assay.
growth less than 80% is Y; growth greater than or equal to 80% is N.

{"columns": ["Compound", "Answer Label"],
 "data": [
  ["NS(=O)(=O)c1cc(C2(O)NC(=O)c3ccccc32)ccc1Cl (stereo unspecified)", "N"],
  ["O=c1oc2c(cc1-c1ccc([N+](=O)[O-])cc1)C(O)Oc1ccccc1-2 (stereo unspecified)", "N"],
  ["CCc1ccc(-c2nc(SCC(=O)NC3CCCCC3)n[nH]2)cc1", "Y"],
  ["Cc1ccccc1NC(=O)N/C(N)=N/c1nc2ccccc2s1", "Y"],
  ["COc1ccc2cc(C3=CC(=O)CCC3)ccc2c1", "N"]
]}

###

- Test system: HOP-92 NSCLC
- Test Method Notes: NCI-60 one-dose screen, 48 h
- Experimental Conditions: 10 µM unless noted
This is part of a sample that, as a whole, favours compounds with a hit. Of some 83,000 tested, about 20% had one in any assay. Calls of active or inactive are those of the source. The calls were made as follows: active = growth percent below 10; inactive = the rest.
Outcomes: active, inactive

{"columns": ["Molecule", "Answer Label"],
 "data": [
  ["O=C(CC1Sc2ccccc2NC1=O)NNc1cccc(Cl)c1Cl (stereo not drawn)", "inactive"],
  ["Cc1cc(C)nc(NS(=O)(=O)c2ccc(Nc3nc4nc(SCc5ccccc5)nc(-c5ccc(O)cc5)c4c(=O)[nH]3)cc2)n1", "active"],
  ["Nc1ncnc2c1CN(Cc1ccccc1)CC2", "inactive"],
  ["O=C1/C(=C\\c2coc3ccccc3c2=O)c2ccccc2N1c1c(Cl)cccc1Cl", "inactive"],
  ["COc1ccc2[nH]c(=O)c(CNc3ccc(Nc4nccc(-c5ccc(Cl)cc5)n4)cc3)cc2c1", "inactive"],
  ["COc1cc(C2CC(c3ccc(C)cc3)=NN2C=O)ccc1OCCN(C)C (stereo not drawn)", "inactive"],
  ["COc1ccc(CCN2C(=O)CCC3=C2CCCC3=O)cc1OC", "inactive"],
  ["CCOc1cc(/C=C/C(=O)C(C(=O)/C=C/c2ccc(OC(=O)CNc3nnc(C)s3)c(OCC)c2)C(=O)CNc2nnc(C)s2)ccc1OC(=O)CNc1nnc(C)s1", "active"],
  ["CCCCCc1c(C)[nH]c(/C=C2\\N=C(c3ccc[nH]3)C=C2Oc2ccccc2)c1C", "active"],
  ["Cc1cc(-c2ccccc2)cc(C)n1", "inactive"],
  ["Nc1ccc2c(c1)Cc1cc(Cl)c(Cl)cc1-2", "inactive"],
  ["COc1ccc2nc(-c3ccc(Cl)cc3)cc(-c3nnc(SCC(=O)Nc4ccc(C(C)=O)cc4)n3-c3ccccc3)c2c1", "inactive"],
  ["N#Cc1c(-c2ccccc2)cc(-c2ccccc2)n(CCC(=O)O)c1=O", "inactive"]
]}
